- TEST: Solubility study in water (saturated solutions, HPLC linear equation; Pharmacopoeia and BCS classification)
- Type: physicochemical
- ASSAY_CONTEXT: Do=(Mo/Vo)/Cs, Mo 80 mg, Vo about 250 ml, Do≤1 solubility high, Do>1 low
Where a name gives a salt, the structure may show the parent alone.
ASSAY_READOUT: BCS level (Do)

Please review the entries below; each comes with its answer.
> print(dat)
                                   compound   assay.readout   obs.value
1  C=CC(=O)Nc1cc(Nc2nccc(-c3cn(C)c4cccnc34)n2)c(OC)cc1N(C)CCN(C)C [mesylate salt]  BCS level (Do)  0.0013 < 1
2  C=CC(=O)Nc1cc(Nc2nccc(-c3cn(C)c4cccnc34)n2)c(OC)cc1N(C)CCN(C)C [phosphate salt (crystal form C)]  BCS level (Do)  0.0023 < 1
3  C=CC(=O)Nc1cc(Nc2nccc(-c3cn(C)c4cccnc34)n2)c(OC)cc1N(C)CCN(C)C [citrate salt]  BCS level (Do)  0.0024 < 1
4  C=CC(=O)Nc1cc(Nc2nccc(-c3cn(C)c4cccnc34)n2)c(OC)cc1N(C)CCN(C)C [hydrochloride salt]  BCS level (Do)  0.0302 < 1
5  C=CC(=O)Nc1cc(Nc2nccc(-c3cn(C)c4cccnc34)n2)c(OC)cc1N(C)CCN(C)C [p-toluenesulfonate salt]  BCS level (Do)  0.2057 < 1
6  C=CC(=O)Nc1cc(Nc2nccc(-c3cn(C)c4cccnc34)n2)c(OC)cc1N(C)CCN(C)C [phosphate salt (amorphous)]  BCS level (Do)  0.0034 < 1

Now let's try a different one.
Would you mind telling me what BCS level (Do) value was observed for C=CC(=O)Nc1cc(Nc2nccc(-c3cn(C)c4cccnc34)n2)c(OC)cc1N(C)CCN(C)C [free base] ?
606.30 > 1

----------
- TEST: Hygroscopicity study of crystal forms (Chinese Pharmacopoeia 2015, part 4, appendix 9103)
- Type: physicochemical
- ASSAY_CONTEXT: 25° C.±1° C., relative humidity 80%±2%; Pharmacopoeia class
- Description: Hygroscopicity comparison study was carried out for various pharmaceutically acceptable salts of EGFR inhibitor present in the form of crystal in Examples 1 to 3 and 5 to 6, the amorphous EGFR inhibitor phosphate salt in Example 4, and the EGFR inhibitor present in a free base form. […]
Where a name gives a salt, the structure may show the parent alone.
ASSAY_READOUT: Hygroscopicity

Please review the entries below; each comes with its answer.
> print(dat)
                                   compound             obs.value
1  C=CC(=O)Nc1cc(Nc2nccc(-c3cn(C)c4cccnc34)n2)c(OC)cc1N(C)CCN(C)C [free base]           hygroscopic
2  C=CC(=O)Nc1cc(Nc2nccc(-c3cn(C)c4cccnc34)n2)c(OC)cc1N(C)CCN(C)C [hydrochloride salt]  slightly hygroscopic
3  C=CC(=O)Nc1cc(Nc2nccc(-c3cn(C)c4cccnc34)n2)c(OC)cc1N(C)CCN(C)C [phosphate salt (amorphous)]  slightly hygroscopic
4  C=CC(=O)Nc1cc(Nc2nccc(-c3cn(C)c4cccnc34)n2)c(OC)cc1N(C)CCN(C)C [phosphate salt (crystal form C)]           hygroscopic
5  C=CC(=O)Nc1cc(Nc2nccc(-c3cn(C)c4cccnc34)n2)c(OC)cc1N(C)CCN(C)C [mesylate salt]           hygroscopic

Now let's try a different one.
Would you mind telling me what Hygroscopicity value was observed for C=CC(=O)Nc1cc(Nc2nccc(-c3cn(C)c4cccnc34)n2)c(OC)cc1N(C)CCN(C)C [citrate salt] ?
hygroscopic

----------
- TEST: Solubility study in water (saturated solutions, HPLC linear equation; Pharmacopoeia and BCS classification)
- Type: physicochemical
- ASSAY_CONTEXT: saturated solution, standing 24 hours
Structures can show the parent of a compound that is named as a salt.
ASSAY_READOUT: Solubility in water, 24 h (mg/mL)

> print(dat)
                                   molecule  unit.info  obs.value
1  C=CC(=O)Nc1cc(Nc2nccc(-c3cn(C)c4cccnc34)n2)c(OC)cc1N(C)CCN(C)C [p-toluenesulfonate salt]      mg/mL       1.56
2  C=CC(=O)Nc1cc(Nc2nccc(-c3cn(C)c4cccnc34)n2)c(OC)cc1N(C)CCN(C)C [phosphate salt (amorphous)]      mg/mL      94.56
3  C=CC(=O)Nc1cc(Nc2nccc(-c3cn(C)c4cccnc34)n2)c(OC)cc1N(C)CCN(C)C [citrate salt]      mg/mL     133.57
4  C=CC(=O)Nc1cc(Nc2nccc(-c3cn(C)c4cccnc34)n2)c(OC)cc1N(C)CCN(C)C [phosphate salt (crystal form C)]      mg/mL     137.13

1. C=CC(=O)Nc1cc(Nc2nccc(-c3cn(C)c4cccnc34)n2)c(OC)cc1N(C)CCN(C)C [mesylate salt]
2. C=CC(=O)Nc1cc(Nc2nccc(-c3cn(C)c4cccnc34)n2)c(OC)cc1N(C)CCN(C)C [hydrochloride salt]
Between item 1 and item 2 , which reported Solubility in water, 24 h is smaller? Answer by stating the label of the chosen item.
2

----------
- TEST: Solubility study in artificial gastric fluid (saturated solutions, HPLC linear equation; Pharmacopoeia and BCS classification)
- Format: physicochemical
- ASSAY_CONTEXT: artificial gastric fluid, saturated solution, standing 1 hour
Where a name gives a salt, the structure may show the parent alone.
ASSAY_READOUT: Solubility in artificial gastric fluid, 1 h (mg/mL)

> print(dat)
                                   compound  obs.value
1  C=CC(=O)Nc1cc(Nc2nccc(-c3cn(C)c4cccnc34)n2)c(OC)cc1N(C)CCN(C)C [phosphate salt (amorphous)]     123.56

a. C=CC(=O)Nc1cc(Nc2nccc(-c3cn(C)c4cccnc34)n2)c(OC)cc1N(C)CCN(C)C [free base]
b. C=CC(=O)Nc1cc(Nc2nccc(-c3cn(C)c4cccnc34)n2)c(OC)cc1N(C)CCN(C)C [phosphate salt (crystal form C)]
Parameter check: reported Solubility in artificial gastric fluid, 1 h is higher for which label, a or b ? Answer by stating the label of the chosen item.
b

----------
- TEST: Solubility study in water (saturated solutions, HPLC linear equation; Pharmacopoeia and BCS classification)
- Type: physicochemical
- ASSAY_CONTEXT: saturated solution, standing 1 hour
Counter-ions that a name gives are not always drawn.
ASSAY_READOUT: Solubility in water, 1 h (mg/mL)

> print(dat)
                                   compound  obs.value
1  C=CC(=O)Nc1cc(Nc2nccc(-c3cn(C)c4cccnc34)n2)c(OC)cc1N(C)CCN(C)C [p-toluenesulfonate salt]       1.82
2  C=CC(=O)Nc1cc(Nc2nccc(-c3cn(C)c4cccnc34)n2)c(OC)cc1N(C)CCN(C)C [citrate salt]     143.59
3  C=CC(=O)Nc1cc(Nc2nccc(-c3cn(C)c4cccnc34)n2)c(OC)cc1N(C)CCN(C)C [phosphate salt (amorphous)]      88.32
4  C=CC(=O)Nc1cc(Nc2nccc(-c3cn(C)c4cccnc34)n2)c(OC)cc1N(C)CCN(C)C [phosphate salt (crystal form C)]     107.15

A. C=CC(=O)Nc1cc(Nc2nccc(-c3cn(C)c4cccnc34)n2)c(OC)cc1N(C)CCN(C)C [mesylate salt]
B. C=CC(=O)Nc1cc(Nc2nccc(-c3cn(C)c4cccnc34)n2)c(OC)cc1N(C)CCN(C)C [hydrochloride salt]
Parameter check: reported Solubility in water, 1 h is higher for which label, A or B ? Answer by stating the label of the chosen item.
A
